Origin of values: patent US10294202B2

test system: ryegrass, Italian; assay: Test C pre-/postemergence herbicide test; type: in vivo, Lolium multiflorum; conditions: Postemergence, 125 g ai/ha; scale 0 to 100 (0 no effect, 100 complete control)

| compound | Plant response rating, Ryegrass, Italian |
| --- | --- |
| O=C1NCC(c2ccc(F)cc2)C1C(=O)Nc1cccc(F)c1F (racemic) [Compound 119] | 0 |
| O=C1NCC(c2cc(F)cc(F)c2)C1C(=O)Nc1cccc(F)c1F (racemic) [Compound 279] | 0 |
| O=C1NCC(c2ccccc2)C1C(=O)Nc1ccccc1F (racemic) [Compound 81] | 0 |
| O=C1NCC(c2cccc(Cl)c2)C1C(=O)Nc1cccc(F)c1F (racemic) [Compound 275] | 5 |

====

tested on: wheat; assay: Test A pre-/postemergence herbicide test; format: in vivo, Triticum aestivum; settings: Postemergence, 500 g ai/ha; 0 to 100 scale (0 no effect, 100 complete control)
The label 1 is reserved for Plant response rating, Wheat strictly under 30; -1 covers values equal to or above it.

| compound | labelValue |
| --- | --- |
| O=C1NCC(c2cc3ccccc3o2)C1C(=O)Nc1cccc(F)c1F (centres unmarked) | 1 |
| CN1CC(c2ccc(C(F)(F)F)cc2)C(C(=O)Nc2ccccc2F)C1=O (centres unmarked) | -1 |
| O=C1NCC(c2cccc(C(F)(F)F)c2)C1C(=O)Nc1ccccc1F (racemic) | -1 |
| O=C1NCC(c2ccccc2)C1C(=O)Nc1cccc(F)c1F (centres unmarked) | 1 |
| CC(C)(C)OC(=O)Nc1cccc(C2CNC(=O)C2C(=O)Nc2cccc(F)c2F)c1 (centres unmarked) | -1 |
| O=C1NCC(c2ccc(Cl)c(C(F)(F)F)c2)C1C(=O)Nc1cccc(F)c1F (racemic) | 1 |
| CC1NC(=O)C(C(=O)Nc2ccccc2F)C1c1ccc(F)c(F)c1 (mixture of isomers) [Compound 8] | 1 |

====

test system: crabgrass, large; assay: Test A pre-/postemergence herbicide test; assay type: in vivo, Digitaria sanguinalis; conditions: Postemergence, 500 g ai/ha; 0 to 100 scale (0 no effect, 100 complete control)
Quick list: Plant response rating, Crabgrass, Large per entry.
propertyMeasured: Plant response rating, Crabgrass, Large

| compound | propertyMeasured | recordedResult |
| --- | --- | --- |
| O=C1NCC(c2ccc(C(F)(F)F)c(F)c2)C1C(=O)Nc1ccccc1F (racemic) | Plant response rating, Crabgrass, Large | 60 |
| O=C1NCC(c2ccc(C(F)(F)F)c(F)c2)C1C(=O)Nc1ccccc1C(F)(F)F (racemic) | Plant response rating, Crabgrass, Large | 70 |
| O=C1NCC(c2ccc(F)c(F)c2)C1C(=O)Nc1cccc2c1OC(F)(F)O2 (centres unmarked) | Plant response rating, Crabgrass, Large | 70 |
| O=C1NCC(c2cccc(F)c2)C1C(=O)Nc1ccccc1F (racemic) | Plant response rating, Crabgrass, Large | 80 |
| O=C1NCC(c2ccc(Cl)c(C(F)(F)F)c2)C1C(=O)Nc1cccc(F)c1F (racemic) | Plant response rating, Crabgrass, Large | 80 |
| O=C1NCC(c2ccc(Cl)nc2)C1C(=O)Nc1ccccc1C(F)(F)F (centres unmarked) | Plant response rating, Crabgrass, Large | 70 |
| O=C1NCC(c2ccccc2)C1C(=O)Nc1ccccc1C(F)(F)F (racemic) | Plant response rating, Crabgrass, Large | 70 |
| O=C1NCC(c2cccc(C(F)(F)F)c2)C1C(=O)Nc1ccccc1C(F)(F)F (racemic) | Plant response rating, Crabgrass, Large | 80 |
